biological target: cIAP1 BIR3 (Homo sapiens (Human)); assay: cIAP1 BIR3 binding assay (DELFIA), BIR3 domain-SMAC peptide interaction
quantity.kind: pIC50
Expect pIC50 as a plain number equal to -log10 of the molar concentration.

Answered cases to consult:
CNC(C)C(=O)Nc1cc(-c2ncnc3ncn(C)c23)cc(C#Cc2ccc(-n3cnc(C)c3)cc2)n1 (stereo not shown); 8.70
CNC(C)C(=O)Nc1cc(-c2ncnc3ncn(C)c23)cc(C#Cc2ccccc2)n1 (stereo not shown); 8.70
CNC(C)C(=O)Nc1cc(-c2ncnc3ncn(C)c23)cc(C#Cc2ccc3c(ccc(=O)n3C)c2)n1 (stereo not shown); 9.00

Next up:
Complete the entry with pIC50 for CNC(C)C(=O)Nc1cc(-c2ncnc3ncn(C)c23)cc(C#Cc2ccc3c(C)nccc3c2)n1 (stereo not shown) 9.00

---

target: cIAP1 BIR3 (Homo sapiens (Human), UniProt Q13490); test: cIAP1 BIR3 binding assay (DELFIA), BIR3 domain-SMAC peptide interaction; details: BIR3 domain 10 nM, SMAC peptide 10 nM; (S)-isomer (examples 1-34, 38-43) or racemate (examples 35-37); read-out: cIAP1 BIR-3 IC50
Sequence (Q13490 256-363): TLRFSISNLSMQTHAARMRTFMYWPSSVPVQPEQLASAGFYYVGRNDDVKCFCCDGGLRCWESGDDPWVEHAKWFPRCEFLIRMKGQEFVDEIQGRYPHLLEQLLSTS
# Lookup of reported IC50 keyed by entry
# unit: nM | format: bare number

Answered cases to consult:
CNC(C)C(=O)Nc1cc(-c2ncnc3c(C)nn(C)c23)cc(C#Cc2cc(C)nc3c(F)cccc23)n1 (stereo not drawn) [Example 3]; 1
CNC(C)C(=O)Nc1cc(-c2ncnc3c(C)nn(C)c23)cc(C#Cc2cc(F)cc(F)c2)n1 (stereo not drawn) [Example 40]; 1

Complete the entry with IC50 for CNC(C)C(=O)Nc1cc(-c2cccc3cnn(C)c23)c(OC)c(C#Cc2ccccc2)n1 (stereo not drawn) [Example 26] 12

---

target: cIAP1 BIR3 (Homo sapiens (Human)); test: cIAP1 BIR3 binding assay (DELFIA), BIR3 domain-SMAC peptide interaction; details: BIR3 domain 10 nM, SMAC peptide 10 nM; (S)-isomer (examples 1-34, 38-43) or racemate (examples 35-37); read-out: cIAP1 BIR-3 IC50
quantity.kind: IC50 (nM)
# unit: nM | format: bare number

Answered cases to consult:
CNC(C)C(=O)Nc1cc(-c2ccc(C(F)(F)F)nc2)cc(C#Cc2ccccc2)n1 (stereo not drawn); 352
CNC(C)C(=O)Nc1cc(-c2ncnc3c(C)nn(C)c23)cc(C#Cc2ccc3c(C)nccc3c2)n1 (stereo not drawn); 1
CNC(C)C(=O)Nc1cc(-c2cccc3cnn(C)c23)c(Cl)c(C#Cc2ccc3c(C)nccc3c2)n1 (stereo not drawn); 12
CNC(C)C(=O)Nc1cc(-c2ccncc2)c(-c2cncnc2)c(C#Cc2ccccc2)n1 (racemic); 250
CNC(C)C(=O)Nc1cc(-c2cccc3ncccc23)c(OC)c(C#Cc2ccccc2)n1 (stereo not drawn); 136

Complete the entry with IC50 for CNC(C)C(=O)Nc1cc(-c2nc(C)nc3c(C)nn(C)c23)cc(C#Cc2ccc3c(ccc(=O)n3C)c2)n1 (stereo not drawn) 1

Complete the entry with IC50 for CNC(C)C(=O)Nc1cc(-c2c(C)nc(C)c3c(=O)n(C)n(C)c23)cc(C#Cc2ccc3c(C)nccc3c2)n1 (stereo not drawn) 1

Complete the entry with IC50 for CNC(C)C(=O)Nc1cc(-c2ncnc3c(C)nn(C)c23)cc(C#Cc2ccc3nc(C)ccc3c2)n1 (stereo not drawn) 1

Complete the entry with IC50 for CNC(C)C(=O)Nc1cc(-c2c(OC)ccc3nc(C)ccc23)cc(C#Cc2ccccc2)n1 (stereo not drawn) 59

Complete the entry with IC50 for CNC(C)C(=O)Nc1cc(-c2nc(C)nc3nn(C)c(C)c23)cc(C#Cc2cnc(-n3cnc(C)c3)nc2)n1 (stereo not drawn) 1

Complete the entry with IC50 for CNC(C)C(=O)Nc1cc(-c2cccnc2)c(-c2cncnc2)c(C#Cc2ccccc2)n1 (racemic) 172

Complete the entry with IC50 for CNC(C)C(=O)Nc1cc(-c2ccncc2)cc(C#Cc2ccccc2)n1 (stereo not drawn) 282
